Observed pKi values for UniProt:P11309 are listed in what follows.
Sequence (P11309 whole entry): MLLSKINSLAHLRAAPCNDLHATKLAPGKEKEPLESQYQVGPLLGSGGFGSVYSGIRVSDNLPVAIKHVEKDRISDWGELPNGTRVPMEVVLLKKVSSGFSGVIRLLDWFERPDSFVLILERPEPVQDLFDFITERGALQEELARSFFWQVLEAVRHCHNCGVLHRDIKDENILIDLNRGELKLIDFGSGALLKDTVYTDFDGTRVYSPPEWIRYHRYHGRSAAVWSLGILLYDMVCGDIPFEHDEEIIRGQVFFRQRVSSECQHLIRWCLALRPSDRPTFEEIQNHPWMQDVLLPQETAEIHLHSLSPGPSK
pKi: −log10 of the molar value.
readoutLabel: pKi

1 = Cn1ncc(NC(=O)c2nc(-c3c(F)cccc3F)sc2N)c1OC1CCNCC1
2 = Cn1ncc(NC(=O)c2nc(Cl)cnc2N)c1N1CCC[C@H](N)C1
3 = Cn1ncc(NC(=O)c2nc(-c3ccccc3F)cnc2N)c1N1CCC(N)CC1
Query string: Rank items: key pKi, increasing. Use the labels to give the ranking in the order requested.
Result string: 2, 1, 3

---

Observed pKi values for PIM2 (Homo sapiens (Human)) are listed in what follows.
pKi: −log10 of the molar value.
readoutLabel: pKi

Observe how each entry below is paired with its result.
Nc1sc(-c2c(F)cccc2F)nc1C(=O)Nc1cn[nH]c1N1CCC[C@H](N)C1 :: 7.26
Cn1ncc(NC(=O)c2nc(-c3ccccc3)ccc2N)c1N1CCC(N)CC1 :: 7.39
Cn1ncc(NC(=O)c2nc(-c3ccccc3F)ccc2N)c1N1CCC[C@H](N)CC1 :: 8.50
Cn1ncc(NC(=O)c2nc(-c3ccccc3F)cnc2N)c1N1CCC[C@H](N)C1 :: 8.67
Cn1ncc(NC(=O)c2nc(-c3c(F)cccc3F)sc2N)c1C1CCC(N)CC1 (stereo not shown) :: 7.90

1 = Cn1ncc(NC(=O)c2nc(-c3ccccc3F)ccc2N)c1N1CCC[C@H](CN)C1
2 = Cn1ncc(NC(=O)c2nc(Cl)cnc2N)c1N1CCC[C@H](N)C1
Query string: For the pair 1 and 2 , which entry has the numerically smaller recorded pKi? Record your answer as the label of the chosen record.
Result string: 2
(2: 6.23, 1: 7.99)

I = Cn1ncc(NC(=O)c2nc(-c3ccccc3F)cnc2N)c1N1CCC(N)CC1
II = CN[C@H]1CCCN(c2c(NC(=O)c3nc(-c4c(F)cccc4F)sc3N)cnn2C)CC1
Query string: I or II : whose pKi is greater? Record your answer as the label of the chosen record.
Result string: II
(II: 8.36, I: 7.83)

---

Observed Ki values for PIM3 (Homo sapiens (Human), UniProt Q86V86) are listed in what follows.
readoutLabel: Ki (nM)

Cn1ncc(NC(=O)c2cncc(-c3ccccc3F)n2)c1N1CCC[C@H](N)CC1 :: 34.2

a = Cn1ncc(NC(=O)c2nc(-c3c(F)cccc3F)sc2N)c1C1CCC(N)CC1 (stereo not shown)
b = Cn1ncc(NC(=O)c2nc(-c3ccccc3F)ccc2N)c1N1CCC[C@@H](N)C1
c = Cn1ncc(NC(=O)c2nc(-c3ccccc3F)ccc2N)c1N1CC[C@@H](N)C1
Query string: # sort list by recorded Ki, greatest to least Use the labels to give the ranking in the order requested.
Result string: c, a, b

---

Test system: BaF3 PIM1 cells
Experiment: In vitro cell proliferation potency assay, Cell Titer Glo (Example 902)
Format: cell-based, murine
Details: Mus musculus; BaF3 line transfected with PIM1, incubated overnight; read-out: Prolif BaF3 PIM1 (IC50)
Method: BaF3 parental line was obtained from the DSMZ repository. BaF3 lines transfected with PIM 1 or PIM2 were generated. Mouse IL-3 was purchased from R&D Systems. G418 was purchased from Clontech. […] BaF3, a murine interleukin-3 dependent pro-B cell line, parental cells, BaF3 PIM1 cells, BaF3 PIM2 cells, and MM1.S (multiple myeloma) cells were seeded at 2 k/well, 5 k/well, 5 k/well, and 10 k/well respectively, in a 384-well plate, at 45 μL/well. […] IC50/EC50 values for the test compound were calculated.
pIC50: −log10 of the molar value.
readoutLabel: pIC50

Observe how each entry below is paired with its result.
Cn1ncc(NC(=O)c2nc(-c3ccccc3F)ccc2N)c1N1CCC[C@@H](N)CC1 :: 6.00
Cn1ncc(NC(=O)c2nc(-c3ccccc3F)ccc2N)c1N1CCC[C@H](CN)C1 :: 5.29
Cn1ncc(NC(=O)c2nc(-c3ccccc3F)ccc2N)c1N1CCC(N)CC1 :: 5.82

P = Cn1ncc(NC(=O)c2nc(-c3c(F)cccc3F)sc2N)c1OC1CCNCC1
Q = Cn1ncc(NC(=O)c2nc(-c3ccccc3F)ccc2N)c1N1CCCC(N)CC1 (centres unmarked)
R = Cn1ncc(NC(=O)c2nc(-c3c(F)cccc3F)sc2N)c1N1CCC[C@H](N)C1
S = Cn1ncc(NC(=O)c2nc(-c3c(F)cccc3F)sc2N)c1N1CCC(N)CC1
T = Cn1ncc(NC(=O)c2nc(-c3ccccc3F)ccc2N)c1N1CC[C@@H](CN)C1
Query string: Provide the items ranked by increasing pIC50. Use the labels to give the ranking in the order requested.
Result string: P, R, Q, T, S
(P: 5.11, R: 5.42, Q: 5.64, T: 5.85, S: 6.21)
